Entries and their Importing cells (%) values follow.
- Test system: GM 17398
- ASSAY REMARKS: Catalase import immunofluorescence (% importing cells)
- Assay type: cell-based, human
- CONDITION NOTES: GM 17398 (PEX26 deficient), at the lower dose leading to the maximum effect (see E24)
Where a name gives a salt, the structure may show the parent alone.
EXPERIMENTAL READOUT: Importing cells (%)

• CCN(CC)Cc1ccc2cc(COC(=O)Nc3ccc(C(=O)NO)cc3)ccc2c1 [Givinostat (hydrochloride monohydrate), Givinostat] = 0%
• O=C(CCCCCCNC(=O)c1cnc(N(c2ccccc2)c2ccccc2)nc1)NO = 0%
• O=C(/C=C/c1cccc(S(=O)(=O)Nc2ccccc2)c1)NO = 0%
• O=C(CCCCCCC(=O)Nc1ccccc1)NO = 2%

* * *

- Tested on: PEX405 cells
- Format: cell-based
- CONDITION NOTES: 10 µM, 3 days, PI positive cells (dead cells)
Structures can show the parent of a compound that is named as a salt.
EXPERIMENTAL READOUT: % PI+ cells (%)

• Cc1[nH]c2ccccc2c1CCNCc1ccc(/C=C/C(=O)NO)cc1 = 49
• Cc1nn(C)cc1CN1CCC(c2ccc(C(=O)Nc3ccccc3N)cc2)CC1 = 8
• COc1ccc(/C=C/C(=O)NO)c(-c2ccc(-c3ccccc3)cc2)c1 = 2
• Cc1ccc(NC(=O)CCCCCC(=O)Nc2ccccc2N)cc1 [Pimelic Diphenylamide 106] = 2
• CCN(CC)Cc1ccc2cc(COC(=O)Nc3ccc(C(=O)NO)cc3)ccc2c1 [Givinostat (hydrochloride monohydrate), Givinostat] = 41
• O=C(/C=C/c1ccc(CN(CCO)CCc2c[nH]c3ccccc23)cc1)NO = 56
• Nc1ccccc1NC(=O)c1ccc(CNc2nccc(-c3cccnc3)n2)cc1 = 29
• COc1ccc(Cn2ccc3ccc(C(=O)NO)cc32)cc1 = 1
• Nc1cc(F)ccc1NC(=O)c1ccc(CNC(=O)/C=C/c2cccnc2)cc1 = 2
• COc1ccc(-c2nc(N3CCOCC3)c3sc(CN(C)c4ncc(C(=O)NO)cn4)cc3n2)cn1 [Fimepinostat] = 55

* * *

- Test system: GM16513 cells
- ASSAY REMARKS: Catalase import immunofluorescence, high-content screening (% importing cells)
- Format: cell-based, human
- CONDITION NOTES: GM16513 cells, 10 µM, 3 days
Structures can show the parent of a compound that is named as a salt.
Exam item: assign MET to entries whose % Importing cells is below 30% and NOT MET to entries at or above 30%. Note that a value of exactly 30% receives NOT MET.

* CN1CCc2c(c3ccccc3n2Cc2ccc(C(=O)NO)cc2)C1 | NOT MET
* Cl.O=C(NO)c1ccc(Cn2cc(-c3ccc(CN4CCCC4)cc3)nn2)cc1 | NOT MET
* O=C(NO)C(c1ccc(-c2ncc(C(F)(F)F)cn2)cc1)c1ccccc1F (stereo not shown) | MET
* Nc1[nH]c(=O)nc2c1ncn2[C@@H]1O[C@H](CO)[C@@H](O)[C@H]1O [Crotonoside] | MET
* O=C(/C=C/c1ccc(CN(CCO)CCc2c[nH]c3ccccc23)cc1)NO | NOT MET
* CCCCNNC(=O)c1ccc(Br)cc1 | MET
* O=C(NO)c1cnc(N2C[C@@H]3[C@H](C2)[C@H]3NCc2ccc3cc(F)ccc3n2)nc1 | NOT MET
* O=C(CCCCCCC(=O)Nc1cccnc1)NO [Pyroxamide] | MET
* Nc1ccccc1NC(=O)c1ccc(CCCC(=O)Nc2ccc([C@@H]3C[C@H]3N)cc2)cc1 | NOT MET
* CC(=O)N[C@@H](CCCCN)C(=O)Nc1ccc2c(C)cc(=O)oc2c1 | MET
* COc1ccc(/C=C/C(=O)NO)c(-c2ccc(-c3ccccc3)cc2)c1 | MET
* CCCCc1nc2cc(/C=C/C(=O)NO)ccc2n1CCN(CC)CC | NOT MET
* Nc1ccccc1NC(=O)c1ccc(CNc2nccc(-c3cccnc3)n2)cc1 | NOT MET
* CC(C)(CNC(=O)c1cccc(-c2noc(C(F)(F)F)n2)c1)c1coc(-c2ccccc2)n1 | MET
* O=C(NO)c1ccc(Cn2c(=O)n(CCc3ccccc3)c(=O)c3ccccc32)cc1 | NOT MET
* CN(C)Cc1ccc(S(=O)(=O)n2ccc(/C=C/C(=O)NO)c2)cc1 [Resminostat (hydrochloride), Resminostat] | NOT MET
* CC(C)(C)c1ccc(C(=O)Nc2ccc(C(=O)NO)cc2)cc1 | NOT MET
* O=C(NO)c1ccc(CN2CCCc3cc(Cl)ccc32)cc1 | MET
* Cc1ccc(NC(=O)CCCCCC(=O)Nc2ccccc2N)cc1 [Pimelic Diphenylamide 106] | NOT MET
* O=C(CCCCCCC(=O)Nc1ccccc1)NO | NOT MET
* COc1ccc(-c2nc(N3CCOCC3)c3sc(CN(C)c4ncc(C(=O)NO)cn4)cc3n2)cn1 [Fimepinostat] | NOT MET
* O=C(CCCCCN1C(=O)c2cccc3cccc(c23)C1=O)NO | NOT MET
* O=C(NO)c1cnc(NC2(c3cccc(F)c3)CCCCC2)nc1 | NOT MET
* O=C(NCC1(c2nc(-c3ccccc3)cs2)CCOCC1)c1cccc(-c2noc(C(F)(F)F)n2)c1 | MET
* CCOC(=O)NCCCC(=O)NCCc1ccccc1 [Santacruzamate A] | MET
* CC(=O)Nc1ccc(C(=O)Nc2ccc(F)cc2N)cc1 | MET
* COC(=O)c1ccc(OC(=O)CCCCCCC(=O)NO)cc1 | MET
* CCOC(=O)c1cnc(NC2(c3ccccc3)CC2)nc1 [CG347B] | MET
* O=C(NO)c1cccc2ccccc12 [1-Naphthohydroxamic acid] | MET
* O=C1CCc2c(ccc3ccccc23)O1 | MET
* O=C(CCCCCCNC(=O)c1cnc(N(c2ccccc2)c2ccccc2Cl)nc1)NO | NOT MET
* Nc1cc(F)ccc1NC(=O)/C=C/c1cnn(C/C=C/c2ccccc2)c1 | MET
* O=C(c1ccc(Cl)cc1Cl)n1nnc2ccccc21 | MET
* O=C(NO)c1ccc(CNC(=O)c2[nH]c(-c3ccc(O)cc3)cc2-c2ccoc2)cc1.O=C(O)C(F)(F)F [QTX125 (TFA)] | NOT MET

* * *

- Test system: PEX405 cells
- Assay type: cell-based
- CONDITION NOTES: 1.3 µM, 3 days, PI positive cells (dead cells)
Please enter yes (1) where % PI+ cells is greater than or equal to 1%, and no (0) where it is lower.

* Nc1cc(F)ccc1NC(=O)c1ccc(CNC(=O)/C=C/c2cccnc2)cc1 | no (0)
* Nc1ccccc1NC(=O)c1ccc(CNc2nccc(-c3cccnc3)n2)cc1 | yes (1)
* Cn1cc(-c2ccc(S(=O)(=O)n3ccc(/C=C/C(=O)Nc4ccccc4N)c3)cc2)cn1 | yes (1)
* O=C(c1ccc(Cl)cc1Cl)n1nnc2ccccc21 | no (0)
* O=C(NO)c1cnc(NC2(c3cccc(F)c3)CCCCC2)nc1 | no (0)
* O=C(NO)c1ccc(CN2CCCc3cc(Cl)ccc32)cc1 | no (0)
* CC(/C=C/C(=O)NO)=C\[C@@H](C)C(=O)c1ccc(N(C)C)cc1 | yes (1)
* O=C(NCC1(c2nc(-c3ccccc3)cs2)CCOCC1)c1cccc(-c2noc(C(F)(F)F)n2)c1 | no (0)
* O=C(NO)c1cccc2ccccc12 [1-Naphthohydroxamic acid] | no (0)
* COc1ccc(/C=C/C(=O)NO)c(-c2ccc(-c3ccccc3)cc2)c1 | no (0)
* O=C(/C=C/c1ccc(CN(CCO)CCc2c[nH]c3ccccc23)cc1)NO | yes (1)
* O=C(NO)c1ccc(CNC(=O)c2[nH]c(-c3ccc(O)cc3)cc2-c2ccoc2)cc1.O=C(O)C(F)(F)F [QTX125 (TFA)] | yes (1)

* * *

- Test system: GM16513 cells
- Format: cell-based
- CONDITION NOTES: 1.3 µM, 3 days, PI positive cells (dead cells)
EXPERIMENTAL READOUT: % PI+ cells (%)

* Nc1ccccc1NC(=O)CCCCCC(=O)Nc1ccccc1 | 1
* COc1ccc(/C=C/C(=O)NO)c(-c2ccc(-c3ccccc3)cc2)c1 | 2
* CCOC(=O)NCCCC(=O)NCCc1ccccc1 [Santacruzamate A] | 1
* O=C(CCCCCCC(=O)Nc1ccccc1)NO | 2
* Cn1c(/C=C/C(=O)NO)ccc1/C=C/C(=O)c1cccc(F)c1 | 3

* * *

- System: GM16513 cells
- ASSAY REMARKS: Catalase import immunofluorescence, high-content screening (% importing cells)
- Assay type: cell-based, human
- CONDITION NOTES: GM16513 cells, dose response with 6 concentrations, 3 days; read-out: EC50
EXPERIMENTAL READOUT: EC50 (µM)

• O=C(CCCCCCC(=O)Nc1ccc(CN[C@H](C(=O)OC2CCCC2)c2ccccc2)cc1)NO [Tefinostat] = 4

* * *

Entries and their % Importing cells values follow.
- Tested on: GM16513 cells
- ASSAY REMARKS: Catalase import immunofluorescence, high-content screening (% importing cells)
- Assay type: cell-based, human
- CONDITION NOTES: GM16513 cells, 10 µM, 3 days
EXPERIMENTAL READOUT: % Importing cells (%)

* O=C(CCCCCCC(=O)Nc1ccc([C@H]2O[C@@H](CSc3nc(-c4ccccc4)c(-c4ccccc4)o3)C[C@@H](c3ccc(CO)cc3)O2)cc1)NO | 39
* O=C(/C=C/c1cccc(S(=O)(=O)Nc2ccccc2)c1)NO | 97
* O=C(NO)c1ccc(CNc2cccc3cccnc23)cc1 | 65
* O=C(CCc1ccc(CN[C@H](C(=O)OC2CCCC2)C2CCCCC2)cn1)NO | 81
